Taken from ChEMBL document CHEMBL1201862.

# System: P388/ADR
# Assay procedure: cells
# Type: functional
# Reported conditions: Mus musculus
Active and inactive are the calls of the source.
Permitted responses: active, inactive

Incoming: Identify the outcome logged in this assay for the compound shown: COc1cccc2c1C(=O)c1c(O)c3c(c(O)c1C2=O)C[C@@](O)(/C(C)=N/NC(=O)c1ccccc1)C[C@@H]3OC1CC(N)C(O)C(C)O1 (some centres undefined)
Outgoing: inactive

Incoming: Identify the outcome logged in this assay for the compound shown: Nc1ccc2[nH]c3c(-c4ccccc4)nccc3c2c1
Outgoing: inactive

Incoming: Identify the outcome logged in this assay for the compound shown: [N-]=[N+]=CC(=O)OCC(N)C(=O)O (centres undefined)
Outgoing: active

Incoming: Identify the outcome logged in this assay for the compound shown: COc1ccc2[nH]c3ccc4cc[n+](CCN5CCC(C6CCN(CC[n+]7ccc8ccc9[nH]c%10ccc(OC)cc%10c9c8c7)CC6)CC5)cc4c3c2c1
Outgoing: inactive

---

# Tested system: Heat shock factor protein 1 (Mus musculus, UniProt P38532)
# Sequence (P38532 whole entry): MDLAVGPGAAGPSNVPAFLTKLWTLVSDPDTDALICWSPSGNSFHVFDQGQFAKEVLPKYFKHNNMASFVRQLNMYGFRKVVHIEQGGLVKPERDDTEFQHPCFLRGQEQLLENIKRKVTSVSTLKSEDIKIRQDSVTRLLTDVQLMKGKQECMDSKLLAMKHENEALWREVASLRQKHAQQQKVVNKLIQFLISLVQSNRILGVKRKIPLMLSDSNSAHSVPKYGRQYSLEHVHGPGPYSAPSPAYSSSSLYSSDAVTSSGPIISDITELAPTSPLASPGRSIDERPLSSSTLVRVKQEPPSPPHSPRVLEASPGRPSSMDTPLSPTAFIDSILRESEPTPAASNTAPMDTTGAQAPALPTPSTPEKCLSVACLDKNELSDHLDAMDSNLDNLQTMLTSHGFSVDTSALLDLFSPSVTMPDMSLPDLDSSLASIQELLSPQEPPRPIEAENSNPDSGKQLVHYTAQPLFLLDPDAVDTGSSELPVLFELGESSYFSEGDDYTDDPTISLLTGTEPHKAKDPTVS
# Assay procedure: inhibition of MG132-induced HSE-luciferase signal, confirmation, cell-based, NIH3T3, luminescence, dose retest (AID 2382);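 further: NIH3T3 fibroblasts with HSF1-driven luciferase reporter stressed by proteasome inhibitor MG132; luminescence from HSF1-driven luciferase expression after 8 hours of MG132 stress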
# Format: functional
The source made the active and inactive calls.
Reported property: EC50

# molecule CC1(C)Cc2c(sc3nc(C4CC4)n(N)c(=O)c23)CO1 ; its EC50 = > 195 µM (not active)

# molecule Cc1oc(/N=C/c2ccccc2)c(C#N)c1C ; its EC50 = > 195 µM (not active)

# molecule CC(C)CNC(=O)C1CCN(Cc2ccc(OCc3ccccc3)cc2)CC1 ; its EC50 = > 195 µM (not active)

# molecule Cc1ccc(NC(=O)c2cc(NC(=O)c3ccco3)ccc2N2CCOCC2)cc1 ; its EC50 = > 195 µM (not active)

# molecule CN(Cc1ccccc1)C(=O)c1ccccc1NC(=O)C1=CSCCO1 ; its EC50 = > 195 µM (not active)

# molecule O=C(NCC1CCCO1)c1onc(CSc2ccc(Cl)cc2)c1C(=O)O (stereo unspecified) ; its EC50 = 9.58 µM (active)

# molecule COc1ccc(NC(=O)c2cc3cc(OC)ccc3oc2=N)cc1 ; its EC50 = > 195 µM (not active)

# molecule C#CC(=O)N(c1cc(OC)ccc1OC)C(C(=O)NC1CCCC1)c1cccs1 (stereo unspecified) ; its EC50 = 0.692 µM (active)

# molecule CC[n+]1c(/C=C/Nc2ccccc2)oc2ccccc21 ; its EC50 = > 195 µM (not active)

# molecule O=C(O)c1cccc(N/N=C/C2=C(Cl)c3cc(Cl)ccc3SC2)c1 ; its EC50 = > 195 µM (not active)

# molecule Cc1ccc(-c2nc(-c3ccccc3)no2)c(Cl)c1 ; its EC50 = < 0.16 µM (active)

---

# Tested system: Phospholipase A2 (Homo sapiens, UniProt P04054);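 further: confirmatory dose-response counterscreen on phospholipase A2, testing hits that came from an ultra-high-throughput screen for ATG4B inhibitors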
# Sequence (P04054 whole entry): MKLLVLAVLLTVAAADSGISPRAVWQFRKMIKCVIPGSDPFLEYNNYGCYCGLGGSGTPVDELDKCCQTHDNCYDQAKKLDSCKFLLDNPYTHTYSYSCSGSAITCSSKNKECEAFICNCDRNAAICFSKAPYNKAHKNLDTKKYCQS
# Type: functional
Calls of active or inactive are those of the source.
Reported property: IC50

# compound CCCOc1ccc2c3c(c(=O)oc2c1OCCC)CCC3 ; its IC50 = 7.13 µM (active)

# compound O=C(O)c1cc(-c2ccc(-c3c(-c4ccc5c(c4)OCO5)noc3-c3ccsc3)cc2)nc2ccccc12 ; its IC50 = 2.26 µM (active)

# compound CCc1ccc2c(c1)C(c1ccc([N+](=O)[O-])cc1)=NNC(c1ccccc1)=N2 ; its IC50 = 0.357 µM (active)

# compound O=C1/C(=C/C=C/c2ccco2)SC(=S)N1NS(=O)(=O)c1ccccc1 ; its IC50 = 13 µM (active)

---

# Assay procedure: CRF-BP/CRF-R2 complex antagonists, dose response, cell-based, uHTS hits, 384-well (AID 651639)
# Assay type: functional, Homo sapiens
# Reported conditions: read-out: IC50_Mean
Active and inactive are the calls of the source.
Permitted responses: active, inactive

Incoming: Identify the outcome logged in this assay for the molecule shown: CC(C)c1cc(C(F)(F)F)nc(NNc2nc(C(C)C)cc(C(F)(F)F)n2)n1
Outgoing: inactive

Incoming: Identify the outcome logged in this assay for the molecule shown: O=C(NNc1ncnc2c1cnn2-c1ccc(F)cc1)c1ccco1
Outgoing: inactive

Incoming: Identify the outcome logged in this assay for the molecule shown: CC(C)Sc1snnc1-c1ccccc1
Outgoing: inactive

Incoming: Identify the outcome logged in this assay for the molecule shown: COc1ccc(NC(=O)c2c(F)cccc2F)cc1S(=O)(=O)Nc1ccc(Br)cc1
Outgoing: active

---

# Tested system: Paired box protein Pax-8 (Homo sapiens, UniProt Q06710)
# Sequence (Q06710 whole entry): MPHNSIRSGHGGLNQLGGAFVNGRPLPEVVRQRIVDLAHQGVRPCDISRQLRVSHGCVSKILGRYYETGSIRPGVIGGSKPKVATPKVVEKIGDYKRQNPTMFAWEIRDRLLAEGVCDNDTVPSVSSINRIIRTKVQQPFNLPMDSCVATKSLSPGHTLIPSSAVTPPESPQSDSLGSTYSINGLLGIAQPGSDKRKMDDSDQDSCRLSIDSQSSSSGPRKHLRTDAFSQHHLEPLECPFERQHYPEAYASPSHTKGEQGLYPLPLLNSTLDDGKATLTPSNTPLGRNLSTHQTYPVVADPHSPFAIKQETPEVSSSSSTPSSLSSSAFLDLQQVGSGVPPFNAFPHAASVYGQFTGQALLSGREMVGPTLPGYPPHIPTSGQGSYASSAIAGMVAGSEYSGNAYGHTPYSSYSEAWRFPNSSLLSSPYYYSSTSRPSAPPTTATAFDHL
# Assay procedure: inhibitors of PAX8-driven TPO luciferase reporter, dose response, RMG-I cells, cherry-pick (AID 687027);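 further: luciferase reporter driven by Pax8 target thyroperoxidase promoter measured by SteadyGlo luminescence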
# Format: functional, cell-based
Activity calls are given as the source filed them.
Reported property: AC50

# compound C[C@@H]1CN([C@@H](C)CO)S(=O)(=O)c2ccc(C#Cc3ccccc3F)cc2O[C@H]1CN(C)C(=O)Cc1ccccc1 ; its AC50 = 5.88 µM (active)

# compound COc1ccc(C2C(O)C(c3c[nH]c4ccccc34)=NN2C(=O)CCl)cc1 (stereo not given) ; its AC50 = 0.65 µM (active)

# compound COc1ccc(NC(=O)Nc2ccc3c(c2)C(=O)N([C@H](C)CO)C[C@@H](C)[C@@H](CN(C)C(=O)Cc2ccccc2)OCCCC[C@H](C)O3)cc1 ; its AC50 = 30.9 µM (active)

# compound O=C(Nc1cc(S(=O)(=O)N2CCCCC2)ccc1Cl)c1ccccc1NS(=O)(=O)c1ccc(F)cc1 ; its AC50 = 5.08 µM (active)

# compound O=c1c(Cl)c(Cl)cnn1Cc1nnc(-c2ccccc2Br)o1 ; its AC50 = 7.63 µM (active)

# compound CCCNC(=O)Nc1ccc2c(c1)OC[C@@H](C)N(Cc1ccc(-c3ccccn3)cc1)C[C@@H](C)[C@H](OC)CN(C)C2=O ; its AC50 = 30.1 µM (active)

# compound C[C@H]1CCCCO[C@H](CN(C)C(=O)Nc2ccc(C(F)(F)F)cc2)[C@@H](C)CN([C@@H](C)CO)C(=O)c2cc(NC(=O)Nc3ccc(F)cc3)ccc2O1 ; its AC50 = 3.62 µM (active)

# compound C[C@H](O)C#Cc1ccc2c(c1)O[C@H](CN(C)Cc1ccc(-c3ccccc3)cc1)[C@@H](C)CN([C@H](C)CO)S2(=O)=O ; its AC50 = 15.9 µM (active)

# compound C(=Cc1cnc2ccccc2n1)c1ccc2c(c1)OCO2 ; its AC50 = 2.92 µM (active)

# compound C[C@H](CO)N1C[C@H](C)[C@H](CN(C)Cc2ccc(C(F)(F)F)cc2)OCCCC[C@H](C)Oc2ccc(NC(=O)CCC(F)(F)F)cc2C1=O ; its AC50 = 5.89 µM (active)

# compound C[C@@H]1CCCCO[C@@H](CN(C)Cc2ccccc2)[C@H](C)CN([C@H](C)CO)C(=O)c2cc(NC(=O)Nc3ccc(C(F)(F)F)cc3)ccc2O1 ; its AC50 = 4.61 µM (active)

# compound COc1ccc(N(Cc2cc3cc(OC)ccc3[nH]c2=O)S(=O)(=O)c2ccc(NC(C)=O)cc2)cc1 ; its AC50 = 1.29 µM (active)

# compound CC1OC(CC(=O)O)CC2=C1C(=O)c1c(O)cccc1C2=O (stereo not given) ; its AC50 = 0.469 µM (active)

# compound C[C@H]1CCCCO[C@@H](CN(C)Cc2ccc3c(c2)OCO3)[C@@H](C)CN([C@@H](C)CO)C(=O)c2cc(NC(=O)Nc3ccc(F)cc3)ccc2O1 ; its AC50 = 22 µM (active)

# compound C[C@@H]1CN([C@H](C)CO)C(=O)c2cc(NS(=O)(=O)c3ccc(Cl)cc3)ccc2O[C@@H](C)CCCCO[C@H]1CN(C)C(=O)C1CCCCC1 ; its AC50 = 15.8 µM (active)

---

# System: BJ
# Assay procedure: cytotoxicity toward BJ-TERT-LT-ST fibroblasts, dose response, cell-based, RAS-independent, luminescence (AID 1935);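 further: BJ fibroblasts immortalized with TERT plus LT and ST oncogenes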
# Type: functional
# Reported conditions: Homo sapiens
Calls of active or inactive are those of the source.
Reported property: EC50

# molecule Cc1cc(-n2c(SCC(=O)NCCC3=CCCCC3)nc3nnc(C)c-3c2N)ccc1Cl ; its EC50 = > 150 µM (inconclusive)

# molecule CCOc1ccc(Nc2nc(N)nc(CCl)n2)cc1 ; its EC50 = 10.8 µM (inconclusive)

# molecule O=C(O)c1ccc2c(=O)n3c(nc2c1)/C(=C/c1ccc(C(F)(F)F)cc1)CC3 ; its EC50 = > 150 µM (inconclusive)

# molecule O=C1/C(=C\c2ccccc2)C2OCC=C3CN4CCC56c7ccccc7N1C5C2C3CC46 (stereo unspecified) ; its EC50 = > 75 µM (inconclusive)

# molecule CCOC(=O)C(=Cc1cc(=O)c(OC)co1)C(=O)OCC ; its EC50 = 4.28 µM (active)

# molecule CC(Oc1ccc(Cl)cc1Cl)C(=O)Nc1ccncc1 (stereo unspecified) ; its EC50 = > 150 µM (not active)
